Source of measurements: the supplement of paper PMC8728848

Molecular target: Neu5Ac(a2-6)Gal(b1-4)GlcNAc(b1-2)Man(a1-6)Man(b1-4)GlcNAc(b1-4)GlcNAc
Test: glycan array binding signal (z-score within array); higher = stronger binding
Conditions: glycan notation: IUPAC condensed, linker removed
Only a selection was taken, and the strongest signals are over-represented in it overall.
Rule: condition met for glycan array binding signal (z-score) not less than -0.3, condition not met for anything less.

Previously resolved entries follow.
binder="Cohesin-marm-DC-ASGPR-CRD (protein) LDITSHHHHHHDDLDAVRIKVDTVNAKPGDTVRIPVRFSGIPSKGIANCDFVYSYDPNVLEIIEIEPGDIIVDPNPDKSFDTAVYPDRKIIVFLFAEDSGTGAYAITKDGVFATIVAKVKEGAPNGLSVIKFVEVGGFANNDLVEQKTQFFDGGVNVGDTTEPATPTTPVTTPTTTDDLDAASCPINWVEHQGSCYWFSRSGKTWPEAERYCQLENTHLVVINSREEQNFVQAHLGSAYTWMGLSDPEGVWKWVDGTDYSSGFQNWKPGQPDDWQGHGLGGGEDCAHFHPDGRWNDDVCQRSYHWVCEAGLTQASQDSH" class="condition not met"
binder="LlpA (Arthrobacter sp) (protein) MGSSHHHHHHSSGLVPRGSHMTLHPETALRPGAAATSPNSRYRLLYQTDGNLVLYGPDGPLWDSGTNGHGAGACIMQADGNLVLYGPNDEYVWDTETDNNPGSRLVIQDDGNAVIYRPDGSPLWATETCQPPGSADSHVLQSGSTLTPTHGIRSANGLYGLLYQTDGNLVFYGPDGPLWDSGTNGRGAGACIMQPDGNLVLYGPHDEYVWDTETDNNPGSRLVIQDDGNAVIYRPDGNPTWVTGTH" class="condition met"
binder="his-Lectin-24A (Drosophila melanogaster) (protein) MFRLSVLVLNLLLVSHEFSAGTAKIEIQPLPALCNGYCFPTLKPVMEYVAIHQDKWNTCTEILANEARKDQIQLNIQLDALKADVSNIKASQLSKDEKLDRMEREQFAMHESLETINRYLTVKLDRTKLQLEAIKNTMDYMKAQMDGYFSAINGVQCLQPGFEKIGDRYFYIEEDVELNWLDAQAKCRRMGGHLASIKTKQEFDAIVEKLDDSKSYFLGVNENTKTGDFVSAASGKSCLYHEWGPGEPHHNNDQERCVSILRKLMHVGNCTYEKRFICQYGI" class="condition met"

Test whether the binder SP15308B-bot-339-22-339 (Bacteroides ovatus) (protein) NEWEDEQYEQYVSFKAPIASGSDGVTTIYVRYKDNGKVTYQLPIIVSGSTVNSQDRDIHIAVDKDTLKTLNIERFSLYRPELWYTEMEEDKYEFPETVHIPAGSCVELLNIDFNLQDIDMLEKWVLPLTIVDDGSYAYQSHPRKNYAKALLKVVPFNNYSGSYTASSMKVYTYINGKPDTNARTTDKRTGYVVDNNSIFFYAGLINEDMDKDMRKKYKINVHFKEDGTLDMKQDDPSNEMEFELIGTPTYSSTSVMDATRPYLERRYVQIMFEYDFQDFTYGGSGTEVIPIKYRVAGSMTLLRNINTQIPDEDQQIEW records glycan array binding signal (z-score) of -0.3 or higher.
condition met

Test whether the binder Layilin (Mus musculus), Q8C351 (protein) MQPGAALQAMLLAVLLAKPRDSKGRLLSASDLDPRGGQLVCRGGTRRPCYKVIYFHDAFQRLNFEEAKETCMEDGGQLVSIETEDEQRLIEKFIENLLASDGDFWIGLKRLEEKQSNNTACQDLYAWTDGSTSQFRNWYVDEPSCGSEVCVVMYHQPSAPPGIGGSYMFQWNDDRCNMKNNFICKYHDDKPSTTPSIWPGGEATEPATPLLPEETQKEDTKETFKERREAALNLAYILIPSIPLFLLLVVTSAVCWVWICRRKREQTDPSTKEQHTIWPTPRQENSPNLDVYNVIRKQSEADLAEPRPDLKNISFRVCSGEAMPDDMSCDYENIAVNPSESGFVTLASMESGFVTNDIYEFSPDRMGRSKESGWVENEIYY records glycan array binding signal (z-score) of -0.3 or higher.
condition not met

Test whether the binder Jacalin (Artocarpus integrifolia) (protein) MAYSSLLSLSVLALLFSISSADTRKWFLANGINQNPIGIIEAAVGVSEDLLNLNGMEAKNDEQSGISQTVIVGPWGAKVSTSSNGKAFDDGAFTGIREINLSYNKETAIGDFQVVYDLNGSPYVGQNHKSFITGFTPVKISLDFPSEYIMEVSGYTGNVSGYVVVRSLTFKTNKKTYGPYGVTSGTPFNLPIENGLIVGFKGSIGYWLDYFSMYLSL records glycan array binding signal (z-score) of -0.3 or higher.
condition met

Test whether the binder DrGal9 (Danio rerio) (protein) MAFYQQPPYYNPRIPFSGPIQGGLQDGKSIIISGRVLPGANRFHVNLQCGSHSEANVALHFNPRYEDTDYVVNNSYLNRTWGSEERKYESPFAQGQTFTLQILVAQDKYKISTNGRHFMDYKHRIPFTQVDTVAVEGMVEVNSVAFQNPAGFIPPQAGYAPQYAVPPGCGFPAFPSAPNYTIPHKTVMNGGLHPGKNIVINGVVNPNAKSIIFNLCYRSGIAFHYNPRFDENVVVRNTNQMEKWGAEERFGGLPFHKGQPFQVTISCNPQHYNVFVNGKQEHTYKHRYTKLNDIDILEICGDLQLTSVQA records glycan array binding signal (z-score) of -0.3 or higher.
condition not met

Test whether the binder XL-35 (Xenopus laevis) (protein) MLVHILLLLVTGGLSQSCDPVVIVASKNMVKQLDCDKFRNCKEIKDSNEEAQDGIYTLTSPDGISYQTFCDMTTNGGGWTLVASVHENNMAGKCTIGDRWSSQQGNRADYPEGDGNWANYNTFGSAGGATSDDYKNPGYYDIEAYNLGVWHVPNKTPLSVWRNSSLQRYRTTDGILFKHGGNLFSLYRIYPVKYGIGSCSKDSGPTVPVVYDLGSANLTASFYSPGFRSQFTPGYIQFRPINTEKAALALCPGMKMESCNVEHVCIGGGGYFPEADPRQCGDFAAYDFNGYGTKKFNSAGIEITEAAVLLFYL records glycan array binding signal (z-score) of -0.3 or higher.
condition met

Test whether the binder Mincle (Bos taurus) (protein) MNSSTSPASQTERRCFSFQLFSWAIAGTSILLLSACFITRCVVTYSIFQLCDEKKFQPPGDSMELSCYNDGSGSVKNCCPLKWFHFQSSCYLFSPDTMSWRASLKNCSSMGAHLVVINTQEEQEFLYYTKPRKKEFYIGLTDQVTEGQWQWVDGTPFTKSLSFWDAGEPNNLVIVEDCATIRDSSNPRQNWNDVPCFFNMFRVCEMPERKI records glycan array binding signal (z-score) of -0.3 or higher.
condition met
